Recorded measurements of pKd, one per entry
Target: T1, human VEGFR on human umbilical vein endothelial cells (HUVECs) (human, UniProt P35968 20-1356)
T1 construct: The phosphorylation blots on these cells detect VEGFR2
T1 sequence (P35968 20-1356 limits assumed): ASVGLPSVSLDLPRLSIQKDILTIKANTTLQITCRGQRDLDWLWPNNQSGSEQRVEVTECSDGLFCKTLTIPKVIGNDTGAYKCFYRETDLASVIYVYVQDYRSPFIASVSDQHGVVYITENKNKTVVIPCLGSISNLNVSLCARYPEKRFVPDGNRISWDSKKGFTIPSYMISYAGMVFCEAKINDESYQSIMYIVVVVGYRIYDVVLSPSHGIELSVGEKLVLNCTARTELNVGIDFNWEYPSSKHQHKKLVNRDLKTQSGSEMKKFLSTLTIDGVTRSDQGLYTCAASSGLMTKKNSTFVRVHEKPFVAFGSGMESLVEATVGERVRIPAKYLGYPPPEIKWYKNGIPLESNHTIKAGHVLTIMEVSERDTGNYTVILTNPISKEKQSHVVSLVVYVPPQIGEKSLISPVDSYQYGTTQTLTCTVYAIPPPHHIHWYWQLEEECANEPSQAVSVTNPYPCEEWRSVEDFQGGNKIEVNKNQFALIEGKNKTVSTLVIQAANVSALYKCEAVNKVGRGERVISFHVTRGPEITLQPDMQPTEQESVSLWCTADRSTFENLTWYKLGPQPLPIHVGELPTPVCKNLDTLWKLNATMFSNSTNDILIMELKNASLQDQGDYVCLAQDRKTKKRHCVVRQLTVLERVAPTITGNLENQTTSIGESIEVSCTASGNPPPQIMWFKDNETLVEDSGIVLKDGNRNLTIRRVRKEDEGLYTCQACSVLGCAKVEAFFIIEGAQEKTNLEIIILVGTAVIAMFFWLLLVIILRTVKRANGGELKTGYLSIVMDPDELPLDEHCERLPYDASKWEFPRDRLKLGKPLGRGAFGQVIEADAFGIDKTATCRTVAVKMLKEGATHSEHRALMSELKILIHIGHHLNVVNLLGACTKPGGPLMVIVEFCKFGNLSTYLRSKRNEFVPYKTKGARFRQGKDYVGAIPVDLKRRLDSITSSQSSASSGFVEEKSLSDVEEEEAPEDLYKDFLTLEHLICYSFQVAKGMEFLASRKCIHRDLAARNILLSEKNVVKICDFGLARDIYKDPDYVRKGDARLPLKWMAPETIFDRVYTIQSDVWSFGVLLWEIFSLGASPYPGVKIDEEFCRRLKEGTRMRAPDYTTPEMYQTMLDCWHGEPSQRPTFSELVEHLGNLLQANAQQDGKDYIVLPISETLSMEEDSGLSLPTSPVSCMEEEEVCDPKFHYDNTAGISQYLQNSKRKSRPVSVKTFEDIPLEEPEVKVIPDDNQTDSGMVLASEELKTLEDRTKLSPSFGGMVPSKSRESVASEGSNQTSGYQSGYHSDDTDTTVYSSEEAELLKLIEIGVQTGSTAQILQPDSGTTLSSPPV
Assay: flow cytometry on HUVECs, soluble ligand titrated 3 h at 4 C, anti-FLAG-PE
Give only the number. pKd is defined as minus log10 of concentration in molar units.

INSERT INTO assay_data (binder, value_measured) VALUES
  ('scVEGFwt, single-chain version of VEGF-A, soluble, FLAG and hexahistidine tags (ligand, Expressed in Pichia pastoris GS115; also called single-chain VEGF-A) DYKDDDDKEVVKFMDVYQRSYCHPIETLVDIFQEYPDEIEYIFKPSCVPLMRCGGCCNDEGLECVPTEESNITMQIMRIKPHQGQHIGEMSFLQHNKCECRPKKDGSTSGSGKSSEGKGEVVKFMDVYQRSYCHPIETLVDIFQEYPDEIEYIFKPSCVPLMRCGGCCNDEGLECVPTEESNITMQIMRIKPHQGQHIGEMSFLQHNKCECRPKKDHHHHHH', 7.74),
  ('PV6 PDGF/VEGF chimera, soluble, N-terminal FLAG and C-terminal hexahistidine tags (designed binder, Secreted from S. cerevisiae YVH10 and treated with Endo Hf; also called soluble PV6) DYKDDDDKIAEPAMIAECHPIETLVDIFQEYPDEIEYIFKPSCVPLMRCGGCCNNRNVQCRPTEESNITMQIMRIKPHQGQHIGEMSFLQHNKCKCETVAAGSTSGSGKSSEGKGEVVKFMDVYQRSYCKTRTEVFEISRRLIDRTNANFLVWPPCVEVQRCSGCCNDEGLECVPTQVQLRPVQVRKIEIVRKKPIFKKATVTLEDHLACKCRPKKDHHHHHH', 7.96),
  ('PVGS, soluble, FLAG and hexahistidine tags (designed binder, Secreted from S. cerevisiae YVH10 at 20 C and treated with Endo Hf) DYKDDDDKIAEPAMIAECHPIETLVDILQEYPDEIGYIFKPSCVPLMRCGGCCNNRNVQCRPTEESNITMQIMRIKPHRGQHIGEMSFLQHNKCRCETVAAGGGGSGGGGSGGGGSGGGGSEVVKFMDVYQRSYCKTRTEVFEISRRLIDATNANFLVWPPCVEVQRCSGCCNHEGLECVPTQVQLRPVQVRKIEFVRKKPIFKKATVTLEDHLACECRPKKDHHHHHH', 9.11);

Kindly review the next binder as well.
Input: Return reported pKd; argument: PVAM-S (PV R32A), soluble, FLAG and hexahistidine tags (designed binder, Secreted from S. cerevisiae YVH10 and treated with Endo Hf) DYKDDDDKIAEPAMIAECHPIETLVDILQEYPDEIGYIFKPSCVPLMRCGGCCNNRNVQCRPTEESNITMQIMRIKPHRGQHIGEMSFLQHNKCRCETVAAGSTSGSGKSSEGKGEVVKFMDVYQRSYCKTRTEVFEISRRLIDATNANFLVWPPCVEVQRCSGCCNHEGLECVPTQVQLRPVQVRKIEFVRKKPIFKKATVTLEDHLACECRPKKDHHHHHH
Output: 9.28

Cited source for all entries: patent US20180111972A1
